The entries below are paired with their reported cell viability.
system: P12-Ichikawa; test: cell viability relative to DMSO control; higher = less cytotoxic; settings: RPMI 5 mM glucose + 10% FBS; 48 h; 0.0211 µM
// note: answer is a bare numeric in %

Some solved entries appear below for comparison.
>  <molecule>
CCC[C@H](Nc1nc(-c2ccc(NC(=O)NCC)c(OC)c2)ncc1C)c1cccnc1

>  <cell viability [%]>
136

$$$$
>  <molecule>
Cc1noc(N[S+](=O)([O-])c2ccc(N)cc2)c1C

>  <cell viability [%]>
91.2

$$$$
>  <molecule>
CC[C@H](C)C(=O)O[C@H]1C[C@@H](C)\C=C2\C=C/[C@H](C)[C@H](CC[C@@H]3C[C@@H](O)CC(=O)O3)[C@@H]12

>  <cell viability [%]>
89.1

$$$$

Query the reported cell viability for P12-Ichikawa; item: O=C(NOCC1CC1)c1ccc(F)c(F)c1Nc1ccc(I)cc1Cl 103

Also CC(C)(Sc1cc(C(C)(C)C)c(O)c(C(C)(C)C)c1)Sc1cc(C(C)(C)C)c(O)c(C(C)(C)C)c1 , if possible. 85.6

Also, CCN1\C=C(C(O)=O)/C(=O)C2=C1C(=C(N3CCNC(C)C3)C(=C2)F)F (stereo not drawn) please. 110

Similarly, C#CCC(Cc1cnc2nc(N)nc(N)c2n1)c1ccc(C(=O)N[C@@H](CCC(=O)O)C(=O)O)cc1 (stereo partly drawn) ? 128

Again, but for CC(C)(C)[C@]1(O)C[C@@H]2OC(=O)C[C@@]23C(=O)O[C@@H]2OC(=O)[C@H](O)C213 (stereo partly drawn) 136

* * *

test system: SEM cells; assay: cell viability relative to DMSO control; higher = less cytotoxic; conditions: HPLM + 10% dialyzed FBS; 48 h; 0.19 µM
// reported cell viability per item
I only need the number, in %, no unit after it.

Consider the following illustrative entries.
>  <compound>
CN(CC(=O)N(Cc1ccc(C2CCCCC2)cc1)c1ccc(C(=O)O)c(O)c1)[S+](=O)([O-])c1c(F)c(F)c(F)c(F)c1F

>  <cell viability (%)>
93.7

$$$$
>  <compound>
OC1CCC(CC1)N2\C=N/C3=C(C2=N)C(=C([N]3CC4=CC=CC=C4)C5=CC=CC=C5)C6=CC=CC=C6 (configuration not stated)

>  <cell viability (%)>
98.9

$$$$
>  <compound>
O=C(CCCN1CCC(O)(c2ccc(Cl)cc2)CC1)c1ccc(F)cc1

>  <cell viability (%)>
94.8

$$$$
>  <compound>
Clc1ccc(C(Cn2ccnc2)OCc2c(Cl)cccc2Cl)c(Cl)c1 (configuration not stated)

>  <cell viability (%)>
125

$$$$
>  <compound>
CCOc1ccccc1N/N=C1/C(=O)N(c2nc(-c3ccccc3)cs2)N=C1C

>  <cell viability (%)>
99.2

$$$$
>  <compound>
CN1CCN(CC1)C2=CC3=C([NH]C(=N3)C/4=C(\N)C5=C(F)C=CC=C5NC4=O)C=C2

>  <cell viability (%)>
46.1

$$$$
>  <compound>
NC(=O)c1nnn(Cc2cc(Cl)c(C(=O)c3ccc(Cl)cc3)c(Cl)c2)c1N

>  <cell viability (%)>
128

$$$$
>  <compound>
Nc1cc(N2CCCCC2)nc(N)[n+]1[O-]

>  <cell viability (%)>
120

$$$$

For the compound shown here, Clc1ccc(C(c2ccccc2Cl)C(Cl)Cl)cc1 (configuration not stated) , give the reported cell viability. 36.1

Next up: CC(C)(C)[C@]1(O)C[C@@H]2OC(=O)C[C@@]23C(=O)O[C@@H]2OC(=O)[C@H](O)C213 (some centres not stated) 99.1

Then COc1cc2c(cc1O)CCC1C2CC[C@@]2(C)C1CC[C@@H]2O (some centres not stated) ? 113

// query: Clc1ccc(C(c2ccc(Cl)cc2)[n+]2ccn(CC(OCc3ccc(Cl)cc3Cl)c3ccc(Cl)cc3Cl)c2)cc1 (configuration not stated) 112

Same thing, different compound: CCC[C@H](Nc1nc(-c2ccc(NC(=O)NCC)c(OC)c2)ncc1C)c1cccnc1 28.4

Now the compound CC1(C)CCC(C)(C)c2cc(NC(=O)c3ccc(C(=O)O)cc3)ccc21 101

Field entry: c1coc(CNc2ncnc3nc[nH]c23)c1 118

Another compound: Cc1noc(N[S+](=O)([O-])c2ccc(N)cc2)c1C 102

And NC(=O)N1CCC(CC(=O)N2CCC([C@H]3c4ncc(Br)cc4CCc4cc(Cl)cc(Br)c43)CC2)CC1 ? 118

What about CO[C@H]1C[C@@H]2CC[C@@H](C)[C@@](O)(O2)C(=O)C(=O)N2CCCC[C@H]2C(=O)O[C@H]([C@@H](C)C[C@@H]2CC[C@@H](O)[C@H](OC)C2)CC(=O)[C@H](C)/C=C(\C)[C@@H](O)[C@@H](OC)C(=O)[C@H](C)C[C@H](C)/C=C/C=C/C=C/1C ? 81.7

COc1cc2c(cc1OC)CN(CCc1ccc(NC(=O)c3cccc4c(=O)c5cccc(OC)c5[nH]c34)cc1)CC2 ? 109

Input Clc1ccc(CCC(Cn2ccnc2)Sc2c(Cl)cccc2Cl)cc1 (configuration not stated) 95

Continue with COc1cccc(OC)c1-c1cc(C(=O)NC2(C(=O)O)C3CC4CC(C3)CC2C4)nn1-c1ccnc2cc(Cl)ccc12 (configuration not stated) 112

Also check Cc1cccc(-c2[nH]c(C(C)(C)C)nc2-c2ccc3nccnc3c2)n1 125

Same again, this time with C/C1=C/C(=C(/CNC(=O)C2=CC(=CC3=C2C=N[N]3C4CCCC4)C5=CC=C(CN6CCOCC6)C=C5)C(=O)N1)C 127

Another: O=C(O)c1cccnc1 106

Try the compound N#CC1(c2cccc(C(=O)Nc3cc(Oc4ccc5nc(NC(=O)C6CC6)sc5n4)ccc3F)c2Cl)CC1 118

One more compound: CC(C)[C@H]1C(=O)N[C@H](CO)Cc2c[nH]c3cccc(c23)N1C 75.6

Source listed as the supplement of paper PMC11451515.
